Sourced from patent US5135932A

The following compounds are shown together with reported pA2 inotropia values.
- assay_method_text: Antiadrenergic activity: shift of isoprenalin dose-activity curves in guinea-pigs (pA2)
- Assay type: in vivo, guinea-pig
- applied_conditions: against inotropic activity of isoprenalin (LV-dP/dtmax); averages from 2 to 3 tests
assay_metric: pA2 inotropia

compound="CC(C)OCCOCc1ccc(OCC(O)CNCCOc2ccc(-c3ccc(=O)[nH]n3)cc2)cc1 (stereo not drawn)" data_value=6.32
compound="Cc1cc(C2=NNC(=O)CC2)ccc1OCCCNCC(O)COc1ccc(CCOCC2CC2)cc1 (stereo not drawn)" data_value=6.44
compound="CC(C)COCCc1ccc(OCC(O)CNC(C)(C)Cn2cnc3cc(C4=NNC(=O)CC4)ccc32)cc1 (stereo not drawn)" data_value=7.17
